# System: CP217
# protocol.details: qHTS profiling for inhibitors of Plasmodium falciparum proliferation (AID 504749); further: nearly all actives have a fitted effect of over 60% in size
# settings: P. falciparum in erythrocytes, SYBR Green DNA, 72 h; series mostly up to 28.7 µM
Results filed as inconclusive are left out. Activity calls are given as the source filed them. The call rests on the fitted dose curve; in most records, active means well fitted inhibition curve with a large enough effect; inconclusive means small, poorly fitted or top-dose-only effect; inactive means flat fitted curve, though single readings scatter.
Permitted responses: yes (1) for active, no (0) for inactive

Reference set, count: 4
[[record]]
compound = "Cc1c(C)c2c(c(C)c1O)CC[C@@](C)(CCC[C@@H](C)CCC[C@@H](C)CCCC(C)C)O2"
cat = "no (0)"

[[record]]
compound = "CC1(C)C(C=C(Cl)Cl)C1C(=O)OCc1cccc(Oc2ccccc2)c1 (stereo not given)"
cat = "no (0)"

[[record]]
compound = "COC(=O)C1=C(C#N)NC(C)=C(C(=O)OC(C)C)C1c1cccc([N+](=O)[O-])c1 (stereo not given)"
cat = "yes (1)"

[[record]]
compound = "CC(C)(C)C(=O)OCOC(=O)[C@@H]1N2C(=O)[C@@H](N=CN3CCCCCC3)[C@H]2SC1(C)C"
cat = "no (0)"


Query :: Which outcome was assigned to CCCCCCOc1ccc(C(=N)N(CCCC)CCCC)c2ccccc12 in this test?
Result :: yes (1)

---

# protocol.details: P-glycoprotein substrates identified in KB-8-5-11 adenocarcinoma cell line, qHTS therapeutic library screen (AID 1346987); further: nearly all actives have a fitted effect of over 65% in size; on activity change, negative = cytotoxicity: on the % scale 0 is the no-effect control and ±100 the full control effect
# settings: KB-8-5-11 (P-gp overexpressing) viability, CellTiter-Glo, 72 h; series mostly up to 44.5 µM
Results filed as inconclusive are left out. Calls of active or inactive are those of the source. Calls come from the whole dose curve; as a rule, active = well fitted inhibition curve with a large enough effect; inconclusive = small, poorly fitted or top-dose-only effect; inactive = flat fitted curve, though single readings scatter.
measurement.kind: activity change, negative = cytotoxicity

Worked cases, activity change, negative = cytotoxicity given:
[[record]]
molecule = "COc1cc(C)c(C(=O)O[C@H]2[C@@H](O)[C@H](n3ccc(=O)[nH]c3=O)O[C@@H]2CO)c(OC)c1"
measurement_kind = "activity change, negative = cytotoxicity"
reported_value = "inactive"

[[record]]
molecule = "COc1ccccc1CC(C(=O)O)N(C)C(=O)c1ccccc1 (stereo not given)"
measurement_kind = "activity change, negative = cytotoxicity"
reported_value = "inactive"

[[record]]
molecule = "COc1cc(C2OCC3C(c4ccc(OC5OC(CO)C(O)C(O)C5O)c(OC)c4)OCC23)ccc1O (stereo not given)"
measurement_kind = "activity change, negative = cytotoxicity"
reported_value = "inactive"

[[record]]
molecule = "Nc1nonc1C(=Nc1ccc(F)c(Cl)c1)NO"
measurement_kind = "activity change, negative = cytotoxicity"
reported_value = "inactive"


Now for a further molecule.
Query :: Please report activity change, negative = cytotoxicity for the following molecule: CC[C@H](/C=C/[C@@H](C)[C@H]1CC[C@H]2[C@@H]3CC=C4C[C@@H](O)CC[C@]4(C)[C@H]3CC[C@]12C)C(C)C
Result :: 0.93% [at 5.11 µM] (inactive)

---

# System: KB-3-1
# protocol.details: Cytotoxic Profiling of Annotated Libraries Using Quantitative High-Throughput Screening (AID 1296008); further: on the % scale 0 is the no-effect control and ±100 the full control effect; nearly all actives have a fitted effect of over 60% in size
# settings: Five cell lines viability, CellTiter-Glo ATP luminescence, 48-72 h; hits give low values
Records with an inconclusive call do not appear.
# key: entry, value: max response
Could you give me the number in %? Just the number is fine.

[[record]]
molecule = "C=CC(C)(CC/C=C(\\C)CC/C=C(\\C)CC(O)/C=C(\\C)C(=O)O)O[C@@H]1O[C@H](CO)[C@@H](O)[C@H](O)[C@H]1O[C@@H]1O[C@H](CO)[C@@H](O)[C@H](O)[C@H]1O (stereo partly specified)"
tested_target = "KB-3-1"
readout_units = "%"
reported_value = 5.27


Query :: Check the records and state max response for c1nc(NC2CCCCCC2)c2cc(CNC[C@H]3CCCO3)sc2n1
Result :: -9.77

Query :: Give recorded max response. COc1ccccc1CC(C(=O)O)N(C)C(=O)c1ccccc1 (stereo unspecified)
Result :: 2.61

Query :: Write down max response measured for item C[C@@H]1O[C@@H](O[C@@H]2[C@@H](O)[C@H](O[C@@H]3[C@@H](O)[C@@H](O)[C@H](O[C@H]4[C@H](OC(=O)[C@]56CCC(C)(C)C[C@H]5C5=CCC7[C@@]8(C)C[C@H](O)[C@H](O[C@@H]9O[C@H](C(=O)O)[C@@H](O)[C@H](O)[C@H]9O)[C@@](C)(CO)C8[C@H](O)C[C@@]7(C)[C@]5(C)CC6)OC[C@H](O)[C@@H]4O)O[C@H]3C)OC[C@H]2O)[C@H](O)[C@H](O)[C@H]1O (stereo partly specified)
Result :: 2.1

Query :: Tell me max response reported for CC(=O)O[C@H]1[C@H](Oc2ccccc2COC(=O)C2(O)C=CCCC2=O)O[C@H](CO)[C@@H](O)[C@@H]1O (stereo partly specified)
Result :: 6.43

Query :: Identify measured max response associated with C[C@]1(OC(=O)/C=C/c2ccccc2)C[C@H](O)[C@]2(O)C=CO[C@@H](O[C@@H]3O[C@H](CO)[C@@H](O)[C@H](O)[C@H]3O)C12 (stereo partly specified)
Result :: 4.61

---

# Tested on: Hek293T
# protocol.details: Primary qHTS to identify gynecologic anti-cancer compounds using libraries of approved drugs and bioactive compounds (AID 1345084); further: on the % scale 0 is the no-effect control and ±100 the full control effect; nearly all actives have a fitted effect of over 55% in size
# settings: Gynecologic cancer cell panel viability, ATPlite luminescence, 48 h, control line for the selectivity index; series mostly up to 57.5 µM
# Excerpt: National Center for Advancing Translational Sciences [NCATS] Assay Overview: Chemotherapeutic drug responses vary from cancer to cancer and from patient to patient. […] ATPlite is a luminescence based assay reliant on the conversion of a luciferase substrate to light in the presence of ATP. As a cytotoxic compound will suppress growth and decrease the number of cells, the concentration of ATP will decrease, and less light signal will be detected in the well. […]
Results filed as inconclusive are left out. Active and inactive are the calls of the source. Calls follow the shape of the dose curve; as a rule, active = well fitted cell-killing curve with a large enough effect; inconclusive = small, poorly fitted or top-dose-only effect, or effect the other way; inactive = flat fitted curve, though single readings scatter.
measurement.kind: activity change, negative = cytotoxicity

Examples with answers:
[[record]]
compound = "COC(=O)C1C(CC(C)=O)C=CC(O)C12Oc1cc(C)cc(O)c1C2=O (configuration not stated)"
reported_value = "inactive"

[[record]]
compound = "COc1ccc(C(O[C@@H]2O[C@H](CO)[C@@H](O)[C@H](O)[C@H]2O)C(CO)Oc2ccc(/C=C/CO)cc2OC)cc1O (some centres not stated)"
reported_value = "inactive"

[[record]]
compound = "COC1C=C([C@@H]2CC=C3[C@@]4(C)C(CC[C@]32C)[C@@]2(C)C=CC(=O)C(C)(C)C2C[C@H]4OC(C)=O)C(=O)O1 (some centres not stated)"
reported_value = "inactive"

[[record]]
compound = "COc1ccc2c3c1O[C@H]1C[C@@H](O)C=C[C@@]31CCN(C)C2"
reported_value = "inactive"

[[record]]
compound = "CC[C@H](/C=C/[C@@H](C)[C@H]1CC[C@H]2[C@@H]3CC=C4C[C@@H](O)CC[C@]4(C)[C@H]3CC[C@]12C)C(C)C"
reported_value = "4.66% [at 6.55 µM] (inactive)"


Query :: Read off the recorded activity change, negative = cytotoxicity for CO[C@@H]1CC[C@H](OC[C@]2(COC(=O)c3ccc(C)[nH]3)[C@H](OC(C)=O)CC[C@@]3(C)[C@@H]4CC=C(C)[C@@H](C5=C(O)C(=O)OC5O)[C@]4(C)CC[C@@H]32)O[C@H]1C (some centres not stated)
Result :: inactive

Query :: Consider the compound CC1=CC(=O)CC(C)(CO[C@@H]2O[C@H](CO)[C@@H](O)[C@H](O)[C@H]2O)C1(O)/C=C/C(C)=C/C(=O)O (some centres not stated) . State its measured activity change, negative = cytotoxicity.
Result :: inactive

---

# System: CP256
# protocol.details: qHTS profiling for inhibitors of Plasmodium falciparum proliferation (AID 504749); further: nearly all actives have a fitted effect of over 60% in size
# settings: P. falciparum in erythrocytes, SYBR Green DNA, 72 h; series mostly up to 28.7 µM
Records with an inconclusive call do not appear. Calls of active or inactive are those of the source. Calls come from the whole dose curve; as a rule, active = well fitted inhibition curve with a large enough effect; inconclusive = small, poorly fitted or top-dose-only effect; inactive = flat fitted curve, though single readings scatter.
Field 'call' accepts active, inactive

Known results for molecules:
[[record]]
molecule = "CC1(C)C(C=C(Cl)Cl)C1C(=O)OCc1cccc(Oc2ccccc2)c1 (configuration not stated)"
cat = "inactive"

[[record]]
molecule = "Cc1cc(C(=O)NNCc2ccccc2)no1"
cat = "inactive"

[[record]]
molecule = "Cc1ccccc1"
cat = "inactive"


Query :: For CCNC(=O)[C@@H]1CCCN1C(=O)[C@H](CCCN=C(N)N)NC(=O)[C@H](CC(C)C)NC(=O)[C@@H](Cc1c[nH]c2ccccc12)NC(=O)[C@H](Cc1ccc(O)cc1)NC(=O)[C@H](CO)NC(=O)[C@H](Cc1c[nH]c2ccccc12)NC(=O)[C@H](Cc1cnc[nH]1)NC(=O)[C@@H]1CCC(=O)N1 , what call appears in the results of this test?
Result :: active

Query :: Outcome? CCCCC/C=C\C/C=C\CCCCCCCC(=O)O
Result :: inactive

Query :: Outcome? O=C(O)c1cc(O)c2c(c1)[O][Bi][O]2
Result :: inactive

Query :: Outcome? CCN(CC)Cc1cc(Nc2ccnc3cc(Cl)ccc23)ccc1O
Result :: active
